Molecular target: recombinant HIVNL4-3 heterodimeric (p66/p51) Reverse Transcriptase (Human immunodeficiency virus type 1 group M subtype B)
Construct: Purified recombinant HIVNL4-3 heterodimeric (p66/p51) Reverse Transcriptase (RT)
Test: Biochemical reverse transcriptase assay
Parameters: species or system HIV-1
Conditions: 5'LTR/dPR IC50, HIV RT biochemical assay, 5'LTR template/primer
# key: entry, value: IC50

compound="Cc1cc(C#N)cc(C)c1Oc1nc(Nc2ccc(C#N)cc2)nc(N)c1Br [TMC-125, Etravirine, reference compound]" result="190 nM"
compound="CC1=C(c2nc(-c3ccc(C#N)cc3)cs2)C(c2cccc(O)c2)NC(=O)N1 (stereo not drawn) [Example 34]" result="< 1000 nM"

Would you kindly look at the next entry?
The reported IC50 of the compound CC1=C(c2nc(-c3ccc(C#N)cc3)cs2)C(c2cccc(O)c2)NC(=O)N1 (single isomer, unassigned) [Example 34 (enantiomer)] was > 100000 nM

* * *

Test: Cytotoxicity by MTS staining in PBMCs
Assay type: cell-based
Details: human, peripheral blood mononuclear cells (PBMC), MTS staining, read-out: TC50
VALUE KIND: CC50 at 7 days

The reported CC50 at 7 days of the molecule CC1=C(c2nc(-c3ccc(C#N)cc3)cs2)C(c2cccc(O)c2)NC(=O)N1 (single isomer, unassigned) [Example 34 (enantiomer)] was ≥ 100 µM

Kindly note the recorded CC50 at 7 days for CC1=C(c2nc(-c3ccc(Cl)cc3)cs2)C(c2cccc(O)c2)NC(=O)N1 (stereo not shown) , which is 50 to 100 µM

Query CC1=C(c2nc(-c3ccc4ccccc4c3)cs2)C(c2cccc(O)c2)NC(=O)N1 (stereo not shown) yields CC50 at 7 days of < 50 µM

Lab note: measured CC50 at 7 days of CC1=C(c2nc(-c3ccc(C#N)cc3)cs2)C(c2ccc(Cl)nc2Cl)NC(=O)N1 (stereo not shown) was 50 to 100 µM

# molecule CC1=C(c2nc(-c3ccc(Br)cc3)cs2)C(c2cccc(O)c2)NC(=O)N1 (stereo not shown) ; its CC50 at 7 days = 50 to 100 µM

Given item COc1ccc(-c2csc(C3=C(C)NC(=O)NC3c3ccc(-c4ccccc4)cc3)n2)cc1 (stereo not shown) , the value recorded as its CC50 at 7 days is ≥ 100 µM

* * *

Test system: peripheral blood mononuclear cells (PBMC)
Assay: Cytotoxicity by MTS staining in PBMCs
Assay type: cell-based
Settings: MTS staining, read-out: TC50 (the source's name)
Procedure: Cytotoxicity was assessed by MTS staining. At assay end-point, PBMC were stained with the addition of […] of the soluble tetrazolium-based dye MTS to determine cell viability and quantify compound toxicity. The plates were incubated 4 to 6 hrs at 37° C. Following incubation, the activity was assessed by reading absorbance values at 490/650 nm.
VALUE KIND: CC50

molecule="Cc1ccc(-c2ccc3c(c2)C=C(C(=O)Nc2ccc(C[N+](C)(C)C4CCOCC4)cc2)CCC3)cc1.[Cl-] [TAK 779, reference compound]" system_tested="peripheral blood mononuclear cells (PBMC)" result="> 10 µM"

Now let's try a different one.
The recorded CC50 with peripheral blood mononuclear cells (PBMC) for Cc1cn([C@H]2C[C@H](N=[N+]=[N-])[C@@H](CO)O2)c(=O)[nH]c1=O [AZT, reference compound] was > 1 µM

* * *

System: HIV-1Ba-L
Experiment: Inhibition of virus replication in MAGI-CCR5 cells (β-galactosidase reporter)
Format: cell-based
Conditions: HIV-1Ba-L in MAGI-CCR5 cells
Procedure: The anti-viral activity of dihydropyrimidines was shown by inhibition of virus replication in MAGI-CCR5 cells. MAGI-CCR5 cells are derived from HeLa-CD4-LTR-β-galactosidase cells. […] Total cell count and viability was visually assessed using a hemacytometer and trypan blue exclusion. Compounds were evaluated at six concentrations (triplicate wells/concentration). […]
VALUE KIND: TI (TC50/IC50)

These recorded examples may help you get a feel for the data.
compound="COc1ccc(-c2csc(C3=C(C)NC(=O)NC3c3cccc(O)c3)n2)cc1 (stereo not drawn) [Example 46]" result="D (D < 10.0)"
compound="CC1=C(c2nc(-c3cccc(C#N)c3)cs2)C(c2ccc(O)cc2)NC(=O)N1 (stereo not drawn) [Example 67]" result="D (D < 10.0)"
compound="CC1=C(c2nc(-c3ccc(C#N)cc3)cs2)C(c2ccc(F)cc2)NC(=O)N1 (stereo not drawn) [Example 49]" result="C (C < 50.0 to 10.0)"
compound="CC1=C(c2nc(-c3ccc(C(F)(F)F)cc3)cs2)C(c2cccc(O)c2)NC(=O)N1 (stereo not drawn) [Example 75]" result="D (D < 10.0)"
compound="Cc1nnc(C(=O)NC(C)(C)c2nc(C(=O)NCc3ccc(F)cc3)c(O)c(=O)n2C)o1 [Raltegravir, reference compound]" result=>3.85

The value of TI (TC50/IC50) measured for the compound CC1=C(c2nc(-c3ccc(C#N)cc3)cs2)C(c2ccc(OCc3ccccc3)cc2)NC(=O)N1 (stereo not drawn) [Example 52] turned out to be C (C < 50.0 to 10.0)

TI (TC50/IC50) reported for this compound CC1=C(c2nc(-c3ccc(F)cc3)cs2)C(c2cccc(O)c2)NC(=O)N1 (stereo not drawn) [Example 44] : C (C < 50.0 to 10.0)

The reported value for COc1cncc(C2NC(=O)NC(C)=C2c2nc(-c3ccc(C#N)cc3)cs2)c1 (stereo not drawn) [Example 26] in terms of TI (TC50/IC50) is D (D < 10.0)

// TI (TC50/IC50) lookup, compound = CC1=C(c2nc(-c3ccc(C#N)cc3)cs2)C(c2ccc(OCc3ccccc3)c(Cl)c2)NC(=O)N1 (stereo not drawn) [Example 81] , result: B (B < 100.0-50.0)

Quick note, TI (TC50/IC50) for CC1=C(c2nc(-c3ccc(Br)cc3)cs2)C(c2cccc(O)c2)NC(=O)N1 (stereo not drawn) [Example 35] landed at C (C < 50.0 to 10.0)

The reported value for CC1=C(c2nc(-c3ccc(C#N)cc3)cs2)C(c2ccncc2F)NC(=O)N1 (stereo not drawn) [Example 30] in terms of TI (TC50/IC50) is D (D < 10.0)

Recorded result, CC1=C(c2nc(-c3ccc(C#N)cc3)cs2)C(c2cc3ccccc3nc2Cl)NC(=O)N1 (stereo not drawn) [Example 5] , TI (TC50/IC50): D (D < 10.0)

Notebook: Cc1ccc(-c2ccc3c(c2)C=C(C(=O)Nc2ccc(C[N+](C)(C)C4CCOCC4)cc2)CCC3)cc1.[Cl-] [TAK 779, reference compound] , TI (TC50/IC50) read as 2902.7

Record CC1=C(c2nc(-c3ccc(F)cc3)cs2)C(Cc2ccc(C)cc2)NC(=O)N1 (stereo not drawn) [Example 95] , field TI (TC50/IC50): D (D < 10.0)

Looking up CC1=C(c2nc(-c3ccc(C#N)cc3)cs2)C(c2ccc(=O)[nH]c2)NC(=O)N1 (stereo not drawn) [Example 18] , I found its TI (TC50/IC50) recorded as D (D < 10.0)

Measured TI (TC50/IC50), CC1=C(c2nc(-c3ccc(C#N)cc3)cs2)C(c2cc(F)cc(F)c2)NC(=O)N1 (stereo not drawn) [Example 53] : C (C < 50.0 to 10.0)

For record CC1=C(c2nc(-c3ccc(C#N)cc3)cs2)C(c2ccc(C#N)c(F)c2)NC(=O)N1 (stereo not drawn) [Example 57] the listed TI (TC50/IC50) is C (C < 50.0 to 10.0)

The reported TI (TC50/IC50) of the compound CC1=C(c2nc(-c3ccc(Cl)cc3)cs2)C(c2cccc(O)c2)NC(=O)N1 (stereo not drawn) [Example 74] was C (C < 50.0 to 10.0)

So, CC1=C(c2nc(-c3ccc(C#N)cc3)cs2)C(c2cccs2)NC(=O)N1 (stereo not drawn) [Example 14] ? Its TI (TC50/IC50) was C (C < 50.0 to 10.0)

In plain terms, Cc1cn([C@H]2C[C@H](N=[N+]=[N-])[C@@H](CO)O2)c(=O)[nH]c1=O [AZT, reference compound] has a documented TI (TC50/IC50) of >36.5

Quick note, TI (TC50/IC50) for CC1=C(c2nc(-c3ccc(C#N)cc3)cs2)C(c2cc(O)ccc2O)NC(=O)N1 (stereo not drawn) [Example 78] landed at D (D < 10.0)

* * *

Assay: Cytotoxicity by MTS staining in uninfected MAGI-CCR5 cells
Assay type: cell-based
Details: human, read-out: TC50
VALUE KIND: CC50 at 48 h

molecule="CC1=C(c2nc(-c3ccc(C#N)cc3)cs2)C(c2cc3ccccc3s2)NC(=O)N1 (stereo not drawn) [Example 12]" value_kind="CC50 at 48 h" result="≥ 100 µM"
molecule="CC1=C(c2nc(-c3ccc(C#N)cc3)cs2)C(c2ccc(F)c([N+](=O)[O-])c2)NC(=O)N1 (stereo not drawn) [Example 60]" value_kind="CC50 at 48 h" result="≥ 100 µM"
molecule="CC1=C(c2nc(-c3cccc(C#N)c3)cs2)C(c2ccc(O)cc2)NC(=O)N1 (stereo not drawn) [Example 67]" value_kind="CC50 at 48 h" result="50 to 100 µM"
molecule="CC1=C(c2nc(-c3ccc(C#N)cc3)cs2)C(c2cc(O)cc(O)c2)NC(=O)N1 (stereo not drawn) [Example 80]" value_kind="CC50 at 48 h" result="≥ 100 µM"

CC50 at 48 h recorded for this molecule, CC1=C(c2nc(-c3ccc(C#N)cc3C)cs2)C(c2cccnc2F)NC(=O)N1 (stereo not drawn) [Example 82] , is 50 to 100 µM

For this molecule ( CC1=C(c2nc(-c3ccc(C#N)cc3)cs2)C(c2cc(F)cc(F)c2)NC(=O)N1 (stereo not drawn) [Example 53] ), measured CC50 at 48 h is ≥ 100 µM
